For each record, write down the corresponding nuclei count.
assay_comment: endothelial E-selectin expression blockers – imaging, HUVEC, immunofluorescence, MLSMR starter and 10KST1 sets, primary screen (AID 487);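 note: 100% = median nuclei count of all wells on the same plate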
test_context: HUVEC TNFalpha-induced E-selectin immunofluorescence imaging, at 2 µM; measured here: cell number, toxicity
Give a bare numeral; the unit % is implied.

Query string: # query: nuclei count of entry CCCCCn1c(CN(C)Cc2ccccc2)nc2c1c(=O)n(C)c(=O)n2C
Result string: 110

Query string: # query: nuclei count of entry CCOc1ccc(S(=O)(=O)Nc2cccc(Cl)c2)cc1
Result string: 81.5

Query string: # query: nuclei count of entry CC(=O)c1cc2c(cc1NC(=O)CN1CCN(C(=O)c3ccco3)CC1)OCO2
Result string: 113

Query string: # query: nuclei count of entry CN1CC=C2C(C#N)=C(N)C(C#N)(C#N)C(c3cccc(Cl)c3Cl)C2C1 (stereo not drawn)
Result string: 99.2

Query string: # query: nuclei count of entry CN1CCN(c2nc3c(c(=O)[nH]c(=O)n3C)n2CCSc2nc3ccccc3s2)CC1
Result string: 100

Query string: # query: nuclei count of entry CCC1(CC)NC(=O)NC1=O
Result string: 106

Query string: # query: nuclei count of entry Nc1c(N2CCCCC2)c(=O)[nH]c(=O)n1-c1ccccc1
Result string: 109

Query string: # query: nuclei count of entry Nn1c(SCC(=O)Nc2ccc(S(=O)(=O)N3CCCC3)cc2)nnc1C(F)(F)F
Result string: 128

Query string: # query: nuclei count of entry Cc1nnc(SCc2nnc(-c3ccccc3Br)o2)n1-c1ccccc1
Result string: 93.8

Query string: # query: nuclei count of entry O=C(CCC(=O)OCCCC(F)(F)C(F)(F)F)NC1CCCCC1
Result string: 122

Query string: # query: nuclei count of entry CCOC(=O)N1CCC(NC(=O)C2CCC(Cn3c(=O)[nH]c4ccccc4c3=O)CC2)CC1 (stereo not drawn)
Result string: 101

Query string: # query: nuclei count of entry CCOC(=O)CSc1nnc(-c2cccnc2)n1Cc1ccccc1
Result string: 158

Query string: # query: nuclei count of entry CCCNC(=O)C1=C(C)C(=O)OC12CCC(C)CC2 (stereo not drawn)
Result string: 115

Query string: # query: nuclei count of entry O=C(C1COc2ccccc2O1)N1CCCC1 (stereo not drawn)
Result string: 99.2

Query string: # query: nuclei count of entry O=C(Nc1ccc2c(c1)OCCO2)C1CCN(C(=O)c2ccc(F)cc2)CC1
Result string: 117

Query string: # query: nuclei count of entry COC(=O)C1=C(C)N(Cc2ccco2)C(=O)C1
Result string: 101

Query string: # query: nuclei count of entry Clc1ccc(Cl)c(-c2nn3c(Cn4cnc5ccccc54)nnc3s2)c1
Result string: 121

Query string: # query: nuclei count of entry CCNS(=O)(=O)c1c(C)cc(N2CCCC2=O)cc1C
Result string: 89

Query string: # query: nuclei count of entry CC(C)c1ccc(CNc2ccc(N3CCOCC3)cc2)cc1
Result string: 119

Query string: # query: nuclei count of entry CCCN(CCC)C(=O)C1CCN(c2cc(C)nc3c(-c4ccc(OC)c(OC)c4)c(C)nn23)CC1
Result string: 124

Query string: # query: nuclei count of entry CCCCc1cc2c(c(NC(C)=O)n1)c(=O)oc1ccccc12
Result string: 104

Query string: # query: nuclei count of entry CCOC(=O)c1[nH]c(C)c(C(=O)Nc2ccc(C)cc2C)c1C
Result string: 103

Query string: # query: nuclei count of entry CCOC(=O)c1ccc(NC(=O)CSc2ncccn2)cc1
Result string: 100
